target: D(1A) dopamine receptor (Homo sapiens) (UniProt P21728); assay: D1 CRE-luciferase signal change, two-sided – cell-based, HEK293 D1, dopamine EC30, D1 allosteric modulator project, primary screen (AID 641); conditions: dopamine EC30 potentiation, at 10 µM, actives deviate in either direction
Sequence (P21728 whole entry, looked up): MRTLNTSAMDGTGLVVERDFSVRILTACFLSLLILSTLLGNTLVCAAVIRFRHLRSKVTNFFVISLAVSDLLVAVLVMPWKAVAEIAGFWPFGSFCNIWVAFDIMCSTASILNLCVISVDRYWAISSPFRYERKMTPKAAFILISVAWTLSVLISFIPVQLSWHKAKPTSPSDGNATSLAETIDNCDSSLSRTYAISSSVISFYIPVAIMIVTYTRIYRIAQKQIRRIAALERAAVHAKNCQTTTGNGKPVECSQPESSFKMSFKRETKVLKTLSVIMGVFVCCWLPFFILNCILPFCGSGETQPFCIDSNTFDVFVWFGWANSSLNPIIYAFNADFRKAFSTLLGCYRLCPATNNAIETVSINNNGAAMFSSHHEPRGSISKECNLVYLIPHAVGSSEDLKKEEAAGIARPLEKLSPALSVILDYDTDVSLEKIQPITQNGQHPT
About 3,400 (5.9%) of roughly 58,000 compounds were called active.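 How the source made its calls: active means luminescence count or its row- and column-corrected plate score outside the 99.7% band of the plate's sample wells, on either side; inactive means the rest.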 The sample holds actives, similar compounds and a random draw of the others, so the mix is not that of the screen.
Outcome field: choose from TRUE (active), FALSE (inactive)

Challenge: Please share the test call associated with COc1ccc(S(=O)(=O)N(C)CC(=O)Nc2ccc3c(c2)OCCO3)cc1OC .
Response given: TRUE

Challenge: Each compound tested received a call. Report the one for COc1cccc(C2/C(=C(/O)c3ccc(F)cc3)C(=O)C(=O)N2CCN(C)C)c1 (stereo not drawn) .
Response given: FALSE

Challenge: What did the test return for COc1ccc(/C(O)=C2/C(=O)C(=O)N(CCCN(C)C)C2c2ccccc2)cc1OC (stereo not drawn) ?
Response given: FALSE

###

I'd appreciate it if you could supply B-score values for the items below.
target: D(1A) dopamine receptor (Homo sapiens) (UniProt P21728); test: D1 CRE-luciferase signal change, two-sided – cell-based, HEK293 D1, dopamine EC30, D1 allosteric modulator project, primary screen (AID 641); conditions: dopamine EC30 potentiation, at 10 µM, actives deviate in either direction
The campaign covered roughly 58,000 compounds. About 3,400 (5.9%) were called active. The entries come from a sample that favours actives as a whole.
Please give only the number in your answer, with no unit.

COc1cc(NC(=O)N2CCOCC2)cc(OC)c1 has a reported B-score of 4.92

// B-score lookup, compound = COc1ccc(CCNc2ncnc3nc[nH]c23)cc1OC , result: 12.7

B-score for COc1cccc(-n2cc3c(c2-c2ccccc2)c(=O)n(C)c(=O)n3C)c1 is 0.281

O=c1cc(-c2ccccc2)nc(N2CCCCC2)[nH]1 yielded B-score of 4.97

Measured B-score of CCS(=O)(=O)NCCc1ccc(OC)c(OC)c1 : 0.864

Reported B-score ( Fc1ccc(OCc2nn3c(Cn4nnc5ccccc54)nnc3s2)cc1 ) = -0.628

B-score in this record for Cc1ccc(SCc2cc(=O)[nH]c(N3CCCCC3)n2)cc1 : 1.14

B-score measured on COc1ccc(CCn2nnnc2C(c2ccccc2)N2CCN(C)CC2)cc1OC (stereo not drawn) = 0.116

###

target: D(1A) dopamine receptor (Homo sapiens) (UniProt P21728); test: D1 CRE-luciferase signal change, two-sided – cell-based, HEK293 D1, dopamine EC30, D1 allosteric modulator project, primary screen (AID 641); details: dopamine EC30 potentiation, at 10 µM, actives deviate in either direction
The whole screen tested about 58,000 compounds, of which about 3,400 (5.9%) were called active. What follows is part of a selection rich in actives, with near analogues and random picks from the rest.
MEASUREMENT LABEL: B-score
Form field (numeric): enter value without unit.

Tested on D(1A) dopamine receptor (Homo sapiens) (UniProt P21728), the item Cc1cccc(OCc2nnc(SCC(=O)N3CCN(C(=O)c4ccco4)CC3)n2C)c1C showed B-score equal to -0.00929

The reported D(1A) dopamine receptor (Homo sapiens) (UniProt P21728) B-score of Cc1cc(/C=N/n2cnnc2)c(C)n1-c1cccc(C(=O)O)c1 is -0.0541

Observed B-score, D(1A) dopamine receptor (Homo sapiens) (UniProt P21728), O=C(Nc1cccc(F)c1)c1ccc(S(=O)(=O)N2CCCC2)cc1 : -0.728

Form field, B-score with D(1A) dopamine receptor (Homo sapiens) (UniProt P21728), item COc1ccc(-n2ncc3c(N4CCc5ccccc54)ncnc32)cc1 : -3.03

Form field, B-score with D(1A) dopamine receptor (Homo sapiens) (UniProt P21728), item COCC(C)N=CC1=C(O)CC(C)(C)CC1=O (centres undefined) : 0.0482

// compound CC/C(=N\O)C(C)(C)/[N+]([O-])=C/c1ccc(Br)cc1 , assay D(1A) dopamine receptor (Homo sapiens) (UniProt P21728), B-score value: 0.458

Entry Cc1noc(C)c1S(=O)(=O)N(CC(=O)NCc1ccc(Cl)cc1)c1ccc2c(c1)OCO2 : B-score on D(1A) dopamine receptor (Homo sapiens) (UniProt P21728) = 0.0431

Given the compound COc1ccc(-n2ncc3c(N4CCCc5ccccc54)ncnc32)cc1 and test system D(1A) dopamine receptor (Homo sapiens) (UniProt P21728), the measured B-score is 0.526

D(1A) dopamine receptor (Homo sapiens) (UniProt P21728) data for COc1ccc(S(=O)(=O)N2CCOCC2)cc1C(=O)Nc1nc2ccccc2s1 ; its B-score: -0.687

###

biological target: D(1A) dopamine receptor (Homo sapiens); experiment: D1 CRE-luciferase signal change, two-sided – cell-based, HEK293 D1, dopamine EC30, D1 allosteric modulator project, primary screen (AID 641); details: dopamine EC30 potentiation, at 10 µM, actives deviate in either direction
The whole screen tested about 58,000 compounds, of which about 3,400 (5.9%) were called active.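 Rule for the calls: active = luminescence count or its row- and column-corrected plate score outside the 99.7% band of the plate's sample wells, on either side; inactive = the rest.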 This is one part of a sample in which actives are shown more often than they occur.
Lab note: assign the record to one of true (1) (active), false (0) (inactive)

Challenge: Answer briefly: the call reported for Clc1ccc(Cn2ncc3c(NCc4cccnc4)ncnc32)cc1 in this assay.
Response given: true (1)

Challenge: What classification did CCCCc1c(O)nc2n(c1=O)CCS2 end up with in this test?
Response given: true (1)

Challenge: What call does the record list for Cc1cc(C(F)(F)F)nn1CC(=O)N1CCCC1 ?
Response given: false (0)

Challenge: Test call, this compound: CCOC(=O)N1CCN(C(=O)c2cnc3n(c2=O)CCS3)CC1
Response given: false (0)

Challenge: Status in this test for CCOC(=O)c1cc(C)sc1NC(=O)C1CCC1 ?
Response given: true (1)
